- target or test system: human CD33 (human, UniProt P20138 18-364)
- Sequence (P20138 18-364): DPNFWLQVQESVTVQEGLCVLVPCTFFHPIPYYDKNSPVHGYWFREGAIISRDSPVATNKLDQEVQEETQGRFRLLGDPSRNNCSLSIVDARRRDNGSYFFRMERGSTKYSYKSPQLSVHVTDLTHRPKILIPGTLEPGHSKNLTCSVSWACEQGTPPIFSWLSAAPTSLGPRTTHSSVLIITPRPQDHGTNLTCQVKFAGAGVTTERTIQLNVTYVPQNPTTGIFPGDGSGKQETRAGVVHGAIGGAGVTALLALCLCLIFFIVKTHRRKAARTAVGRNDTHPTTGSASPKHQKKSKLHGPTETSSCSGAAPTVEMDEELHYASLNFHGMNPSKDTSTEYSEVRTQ
- assay text: cell-based or functional assay
Please go through the items and note down their Percent CD33 Surface Expression, Macrophage % CD33.
Write the number in % without appending the unit.

What value of Percent CD33 Surface Expression, Macrophage % CD33 has been recorded for this entry: C-61 (antibody, V domains shown, human IgG1) VH: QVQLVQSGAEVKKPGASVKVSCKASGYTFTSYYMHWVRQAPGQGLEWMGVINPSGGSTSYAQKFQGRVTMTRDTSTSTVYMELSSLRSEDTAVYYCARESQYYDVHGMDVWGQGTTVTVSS VL: EIVLTQSPGTLSLSPGERATLSCRASQSVSSSYLAWYQQKPGQAPRLLIYGASSRATGIPDRFSGSGSGTDFTLTISRLEPEDFAVYYCQQYYGLPLTFGGGTKVEIK 50.8

Please do the same for C-90 (antibody, V domains shown, human IgG1) VH: EVQLVESGGGLVQPGGSLRLSCAASGFTFSSYWMSWVRQAPGKGLEWVANINQDGSEKYYVDSVKGRFTISRDNAKNSLYLQMNSLRAEDTAVYYCAREAGAVTGYRWFDPWGQGTLVTVSS VL: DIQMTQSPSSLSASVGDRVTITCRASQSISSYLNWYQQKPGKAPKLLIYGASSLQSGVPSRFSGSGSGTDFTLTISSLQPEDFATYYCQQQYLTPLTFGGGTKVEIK as well. 41.3
